Where these numbers come from: patent US11981666B2

experimentSummary: Pharmacokinetic experiment in cynomolgus monkeys
Assay type: in vivo, cynomolgus monkey
conditionNotes: male, cynomolgus monkey, plasma, iv, 2 mg/kg, intravenous 2 mg/kg, Mean (n=3)
assayEndpoint: clearance (mL/min/kg)
Give the number; mL/min/kg is assumed, so skip it.

## Task Value lookup for clearance; key = O=C(O)c1ccc2nc(CN3CCC(c4cccc(OCc5ccc(C6COC6)cc5F)n4)CC3)n(C[C@@H]3CCO3)c2c1
## Result 3.46

* * *

experimentSummary: Toxicological experiment in mice, 14-day repeated oral gavage (toxicokinetic study)
Type: in vivo, mouse
conditionNotes: male, ICR, mouse, plasma, po, 200 mg/kg, plasma of male animals, Day 14; read-out: AUC(0-t), the systemic exposure (first value listed)
assayEndpoint: AUC(0-t) (µg·h/mL)
Give the number; µg·h/mL is assumed, so skip it.

## Task Value lookup for AUC(0-t); key = O=C(O)c1ccc2nc(CN3CCC(c4cccc(OCc5ccc(C6COC6)cc5F)n4)CC3)n(C[C@@H]3CCO3)c2c1
## Result 218

Now examine the next entry.
## Task Value lookup for AUC(0-t); key = N#Cc1ccc(COc2cccc(C3CCN(Cc4nc5ccc(C(=O)O)cc5n4C[C@@H]4CCO4)CC3)n2)c(F)c1 [Compound 20, reference compound]
## Result 387
